Assay: Cytotoxicity against human HeLa cells at 30 uM
Assay type: cell-based
Conditions: read-out: Inhibition
Label scheme for cytotoxicity at 30 µM: lower than 50% is condition not met, 50% and above is condition met.

A selection of reference data follows.
| structureSmilesString | assignedLabel |
| --- | --- |
| c1ccc(CSC2=NCc3[nH]c4ccccc4c3S2)cc1 | condition not met |
| CSC(=S)NCc1cc2ccccc2[nH]1 | condition met |
| S=C(NCc1cc2ccccc2[nH]1)SCc1ccccc1 | condition met |
| CNC(=S)NCc1cc2ccccc2[nH]1 | condition not met |

In: Does the molecule `CSC1=NCc2[nH]c3ccccc3c2S1` have recorded cytotoxicity at 30 µM that is 50% or more?
Out: condition not met

In: Does the molecule `CSC(=S)NCc1c[nH]c2ccccc12` have recorded cytotoxicity at 30 µM that is 50% or more?
Out: condition not met
